Test system: PDC KRAS tumor spheroids with HUVEC/MSC, viability
PROCEDURE_DETAILS: Anticancer human tumor 349418-098-R-PDC patient-derived lung adenocarcinoma cell line growth inhibition [KRAS2]
RECORDED_CONDITIONS: second compound 10 µM; first compound 1 µM; stronger effect = lower value
VALUE_TYPE: viability, T/C (%)

1) COC(=O)c1ccc2c(C(=Nc3ccc(N(C)C(=O)CN4CCN(C)CC4)cc3)c3ccccc3)c(O)[nH]c2c1 + CC1OCC2(CCN(c3cnc(Sc4ccnc(N)c4Cl)c(N)n3)CC2)C1N ... 42.2
2) CC(=O)OC12COC1CC(O)C1(C)C(=O)C(O)C3=C(C)C(OC(=O)C(O)C(NC(=O)OC(C)(C)C)c4ccccc4)CC(O)(C(OC(=O)c4ccccc4)C21)C3(C)C (stereo not drawn) + CNCc1ccccc1-c1csc(C(C)Nc2nc(C)nc3cc(OC)c(OC)cc23)c1 ... 22.6
3) CC1OCC2(CCN(c3cnc(Sc4ccnc(N)c4Cl)c(N)n3)CC2)C1N (stereo not drawn) + COc1cc2nc(C)nc(NC(C)c3cc(N)cc(C(F)(F)F)c3)c2cc1OC1CCOC1 ... 24.1

====

System: PDC KRAS tumor spheroids with HUVEC/MSC, viability
PROCEDURE_DETAILS: Anticancer human tumor 349418-098-R-PDC cell line growth inhibition [KRAS2];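 further: spheroids exposed to compounds for seven days before readout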
RECORDED_CONDITIONS: curve of first compound; second compound 0.316 µM
pIC50: −log10 of the molar value.
Parameter pIC50: see the listing below.
VALUE_TYPE: pIC50

1) COc1cc(Nc2ncc3c(n2)-c2ccc(Cl)cc2C(c2c(F)cccc2OC)=NC3)ccc1C(=O)O + C=CC(=O)N1CCN(c2nc(OCC3CCCN3C)nc3c2CCN(c2cccc4cccc(C)c24)C3)CC1CC#N ... > 7.50
2) Cn1ncnc1[C@H]1c2n[nH]c(=O)c3cc(F)cc(c23)N[C@@H]1c1ccc(F)cc1 + C=CC(=O)N1CCN(c2nc(OCC3CCCN3C)nc3c2CCN(c2cccc4cccc(C)c24)C3)CC1CC#N ... < 7.00
3) CC1OCC2(CCN(c3cnc(Sc4ccnc(N)c4Cl)c(N)n3)CC2)C1N (stereo not drawn) + COc1cc2nc(C)nc(NC(C)c3cc(N)cc(C(F)(F)F)c3)c2cc1OC1CCOC1 ... < 5.00

====

Parameter viability, T/C: see the listing below.
Tested on: PDC KRAS tumor spheroids with HUVEC/MSC, viability
PROCEDURE_DETAILS: Anticancer human tumor 349418-098-R-PDC cell line growth inhibition [KRAS2];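 further: spheroids exposed to compounds for seven days before readout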
RECORDED_CONDITIONS: second compound 3.16 µM; first compound 0.1 µM; stronger effect = lower value
VALUE_TYPE: viability, T/C (%)

1. CC(C)NCC(C(=O)N1CCN(c2ncnc3c2C(C)CC3O)CC1)c1ccc(Cl)cc1 (stereo not given) + COc1cc2nc(C)nc(NC(C)c3cc(N)cc(C(F)(F)F)c3)c2cc1OC1CCOC1 ... 58.3
2. O=C(c1cc(Cc2n[nH]c(=O)c3ccccc23)ccc1F)N1CCN(C(=O)C2CC2)CC1 + C=CC(=O)N1CCN(c2nc(OCC3CCCN3C)nc3c2CCN(c2cccc4cccc(C)c24)C3)CC1CC#N ... 0.12
3. Cn1ncnc1[C@H]1c2n[nH]c(=O)c3cc(F)cc(c23)N[C@@H]1c1ccc(F)cc1 + C=CC(=O)N1CCN(c2nc(=O)n(-c3c(C)ccnc3C(C)C)c3nc(-c4c(O)cccc4F)c(F)cc23)C(C)C1 ... 56.3
4. CC1COCCN1c1cc(-c2ccnn2C)c2ccnc(-c3ccn[nH]3)c2n1 (stereo not given) + COc1cc2nc(C)nc(NC(C)c3cc(N)cc(C(F)(F)F)c3)c2cc1OC1CCOC1 ... 12.8
5. CC1COCCN1c1cc(-c2ccnn2C)c2ccnc(-c3ccn[nH]3)c2n1 (stereo not given) + CC1OCC2(CCN(c3cnc(Sc4ccnc(N)c4Cl)c(N)n3)CC2)C1N ... 10.1
6. CC1(C)CCC(CN2CCN(c3ccc(C(=O)NS(=O)(=O)c4ccc(NCC5CCOCC5)c([N+](=O)[O-])c4)c(Oc4cnc5[nH]ccc5c4)c3)CC2)=C(c2ccc(Cl)cc2)C1 + CC1OCC2(CCN(c3cnc(Sc4ccnc(N)c4Cl)c(N)n3)CC2)C1N ... 85.5
7. CN(C)C/C=C/C(=O)Nc1cc2c(Nc3ccc(F)c(Cl)c3)ncnc2cc1O[C@H]1CCOC1 + CNCc1ccccc1-c1csc(C(C)Nc2nc(C)nc3cc(OC)c(OC)cc23)c1 ... 0.26
8. Cn1ncnc1[C@H]1c2n[nH]c(=O)c3cc(F)cc(c23)N[C@@H]1c1ccc(F)cc1 + COc1cc2nc(C)nc(NC(C)c3cc(N)cc(C(F)(F)F)c3)c2cc1OC1CCOC1 ... 78.1
9. Cn1nccc1Nc1nccc(-c2cc3c(s2)C(C)(C)N(CCN2CCOCC2)C3=O)n1 + C=CC(=O)N1CCN(c2nc(OCC3CCCN3C)nc3c2CCN(c2cccc4cccc(C)c24)C3)CC1CC#N ... 0.09
10. COc1cc(Nc2ncc3c(n2)-c2ccc(Cl)cc2C(c2c(F)cccc2OC)=NC3)ccc1C(=O)O + CC1OCC2(CCN(c3cnc(Sc4ccnc(N)c4Cl)c(N)n3)CC2)C1N ... 36.3

====

Test system: PDC KRAS tumor spheroids with HUVEC/MSC, viability
PROCEDURE_DETAILS: Anticancer human tumor 349418-098-R-PDC cell line growth inhibition [KRAS2];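 further: spheroids exposed to compounds for seven days before readout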
RECORDED_CONDITIONS: second compound 0.1 µM; first compound 1 µM; stronger effect = lower value
VALUE_TYPE: viability, T/C (%)

1) COC(=O)c1ccc2c(C(=Nc3ccc(N(C)C(=O)CN4CCN(C)CC4)cc3)c3ccccc3)c(O)[nH]c2c1 + CNCc1ccccc1-c1csc(C(C)Nc2nc(C)nc3cc(OC)c(OC)cc23)c1 ... 29.8
2) O=C(c1cc(Cc2n[nH]c(=O)c3ccccc23)ccc1F)N1CCN(C(=O)C2CC2)CC1 + CNCc1ccccc1-c1csc(C(C)Nc2nc(C)nc3cc(OC)c(OC)cc23)c1 ... 71
3) CC1COCCN1c1cc(-c2ccnn2C)c2ccnc(-c3ccn[nH]3)c2n1 (configuration not stated) + C=CC(=O)N1CCN(c2nc(OCC3CCCN3C)nc3c2CCN(c2cccc4cccc(C)c24)C3)CC1CC#N ... 4.53
4) Cn1nccc1Nc1nccc(-c2cc3c(s2)C(C)(C)N(CCN2CCOCC2)C3=O)n1 + COc1cc2nc(C)nc(NC(C)c3cc(N)cc(C(F)(F)F)c3)c2cc1OC1CCOC1 ... 7.65
5) CC1(C)CCC(CN2CCN(c3ccc(C(=O)NS(=O)(=O)c4ccc(NCC5CCOCC5)c([N+](=O)[O-])c4)c(Oc4cnc5[nH]ccc5c4)c3)CC2)=C(c2ccc(Cl)cc2)C1 + CNCc1ccccc1-c1csc(C(C)Nc2nc(C)nc3cc(OC)c(OC)cc23)c1 ... 89.7
6) CCN1CCN(Cc2ccc(Nc3ncc(F)c(-c4cc(F)c5nc(C)n(C(C)C)c5c4)n3)nc2)CC1 + COc1cc2nc(C)nc(NC(C)c3cc(N)cc(C(F)(F)F)c3)c2cc1OC1CCOC1 ... 5.42
7) CCNC(=O)CC1N=C(c2ccc(Cl)cc2)c2cc(OC)ccc2-n2c(C)nnc21 (configuration not stated) + CC1OCC2(CCN(c3cnc(Sc4ccnc(N)c4Cl)c(N)n3)CC2)C1N ... 11.3
